Reference for the values: ChEMBL document CHEMBL4342426

# Tested on: Trypanosoma brucei rhodesiense
# Assay text: microbe, parasite or virus in culture
# Test conditions: STIB900, 72 h
# Description: Antiprotozoal activity against Trypanosoma brucei rhodesiense STIB900 trypomastigotes incubated for 72 hrs by resazurin dye based fluorimetric analysis
Param label: returns Satisfied when IC50 < 60 µM, returns Not satisfied otherwise, including exact equality.

> print(dat)
                                    compound          group
 1  O=C(Nc1ccc(-c2cc3ncccc3[nH]2)cc1)c1ccccc1      Satisfied
 2  O=C(c1ccc(F)cc1)N1CCCC(c2cc3nc(Cl)ccc3[nH]2)C1 (stereo unspecified)      Satisfied
 3         O=C1c2ccccc2CN1CCc1cc2ncccc2[nH]1  Not satisfied
 4  Cc1nc(C)c(C(=O)N2CCCC(c3cc4ncccc4[nH]3)C2)s1 (stereo unspecified)  Not satisfied
 5      O=C(NCCc1nc2ncc(Cl)cc2[nH]1)c1ccccc1  Not satisfied
 6  COc1ccc(Cl)cc1C(=O)N1CCCC(c2cc3ncccc3[nH]2)C1 (stereo unspecified)      Satisfied
 7  Nc1cc(C2CCCN(C(=O)c3ccccc3)C2)[nH]n1 (stereo unspecified)  Not satisfied
 8      O=C(c1ccccc1)N1CCN(c2nc3ccccc3s2)CC1  Not satisfied
 9   O=C(c1ccccc1)N1CCC(c2cc3ncccc3[nH]2)CC1  Not satisfied
10  COc1cccc(C(=O)N2CCCC(c3cc4ncccc4[nH]3)C2)c1OC (stereo unspecified)      Satisfied
11   O=C(CCc1nc2ncc(Cl)cc2[nH]1)Nc1cccc(F)c1  Not satisfied
